system: COVID-19 (nCoV-2019, SARS-CoV2) Mpro (Severe acute respiratory syndrome coronavirus 2)
measurement-notes: COVID-19 (nCoV-2019, SARS-CoV2) Mpro enzymatic assay
Assay type: biochemical
condition-description: 25 nM Mpro, 25 μM substrate; read-out: COVID-19 Mpro IC50
Here the recorded IC50 is given for each entry.

INSERT INTO results (compound, result) VALUES
  ('CC(C)(C)c1ccc(N(C(=O)[C@H]2C[C@@H](O)CN2C#N)C(C(=O)NC2CCCCC2)c2c[nH]nn2)cc1 (stereo partly drawn)', '2 to 10 µM'),
  ('CO[C@@H]1C[C@H](C(=O)N(c2ccc(S(F)(F)(F)(F)F)cc2)C(C(=O)NCCc2cccc(F)c2)c2cccnc2)N(C#N)C1 (single isomer, unassigned) [1197 Isomer 1]', '< 2 µM');

Continue with the compound presented below.
Form field IC50, entry C[C@H](NC(=O)C(c1cccnc1)N(C(=O)c1ccco1)c1ccc(-c2ccccc2)cc1)c1ccccc1 (single isomer, unassigned) [1353 Isomer 2] : > 30 µM

---

system: COVID-19 (nCoV-2019, SARS-CoV2) Mpro (Severe acute respiratory syndrome coronavirus 2)
measurement-notes: COVID-19 (nCoV-2019, SARS-CoV2) Mpro enzymatic assay
Assay type: biochemical
condition-description: 25 nM Mpro, 25 μM substrate; read-out: COVID-19 Mpro IC50
pIC50: −log10 of the molar value.
Here the recorded pIC50 is given for each entry.

Example cases with answers are listed next.
INSERT INTO results (compound, result) VALUES
  ('CO[C@@H]1C[C@H](C(=O)N(c2ccc(C(C)(C)C)cc2F)C(C(=O)NC2CCC(F)(F)CC2)c2cncc(F)c2)N(C#N)C1 (single isomer, unassigned) [1207 Isomer 1]', '5.00 to 5.70'),
  ('N#CN1C[C@H]2C[C@H]2[C@@H]1C(=O)N(c1ccc(S(F)(F)(F)(F)F)cc1)C(C(=O)NC1CCC(F)(F)CC1)c1cncc(F)c1 (single isomer, unassigned) [Compound 1095b Isomer 1]', '> 5.70'),
  ('N#CN1CCOC[C@@H]1C(=O)N(c1ccc(S(F)(F)(F)(F)F)cc1)C(C(=O)NC1CCC(F)(F)CC1)c1cccnc1 (stereo partly drawn) [Compound 1315]', '> 5.70'),
  ('Cc1nc[nH]c1C(C(=O)NC1CCC(F)(F)CC1)N(C(=O)[C@H]1C[C@@](C)(O)CN1C#N)c1ccc(S(F)(F)(F)(F)F)cc1 (single isomer, unassigned) [1324 Isomer 2]', '4.52 to 5.00'),
  ('CC(C)(C)c1ccc(N(C(=O)[C@H]2CCCN2C#N)C(C(=O)NC2CCCCC2)c2cccnc2)cc1 (single isomer, unassigned) [Compound 130a]', '> 5.70');

Recorded pIC50 for N#CC1(Nc2ccc(S(F)(F)(F)(F)F)cc2)CCCc2ccncc21 (stereo not drawn) [Compound 690b] on COVID-19 (nCoV-2019, SARS-CoV2) Mpro (Severe acute respiratory syndrome coronavirus 2) was < 4.52

---

system: COVID-19 (nCoV-2019, SARS-CoV2) Mpro (Severe acute respiratory syndrome coronavirus 2, UniProt P0DTD1)
measurement-notes: COVID-19 (nCoV-2019, SARS-CoV2) Mpro enzymatic assay
Type: biochemical
condition-description: 25 nM Mpro, 25 μM substrate; read-out: COVID-19 Mpro IC50
pIC50: −log10 of the molar value.
recorded-metric: pIC50

Example cases with answers are listed next.
INSERT INTO measurements (molecule, recorded_metric, result) VALUES
  ('CC(C)(C)c1ccc(N(C(=O)[C@H]2C[C@H](O)CN2C#N)C(C(=O)NC2CCCCC2)c2cccnc2)cc1 (single isomer, unassigned) [Compound 255 Isomer 1]', 'pIC50', '5.00 to 5.70'),
  ('CC(C)(C)c1ccc(N(C(=O)[C@H]2C[C@@H](O)CN2C#N)C(C(=O)NC2CCCCC2)c2cccnc2)cc1 (single isomer, unassigned) [Compound 254 Isomer 2]', 'pIC50', '> 5.70');

Continue with the molecule presented below.
Form field pIC50, entry CC1(C)CCN(C#N)[C@H]1C(=O)N(c1ccc(S(F)(F)(F)(F)F)cc1)C(C(=O)NC1CCC(F)(F)CC1)c1cncc(F)c1 (single isomer, unassigned) [1094 Isomer 1] : > 5.70

---

Here the recorded CC50 is given for each entry.
Test system: cells without virus infection
measurement-notes: Cytotoxicity in parallel to the 229E CPE assay, without virus infection, CellTiter Glo
condition-description: read-out: 229E CC50; without virus infection

INSERT INTO results (molecule, system, result) VALUES
  ('COc1cncc(C(C(=O)NC2CCCCC2)N(C(=O)[C@H]2C[C@@H](O)CN2C#N)c2ccc(C(C)(C)C)cc2)c1 (single isomer, unassigned) [679 Isomer 2]', 'cells without virus infection', '10 to 30 µM');

Continue with the molecule presented below.
Form field CC50, entry COc1cncc(C(C(=O)NC2CCCCC2)N(C(=O)[C@H]2C[C@@H](O)CN2C#N)c2ccc(C(C)(C)C)cc2)c1 (single isomer, unassigned) [679 Isomer 1] : > 30 µM

---

Tested on: HCov OC43
measurement-notes: HCoV OC43 cytopathic effect (CPE) assay, CellTiter Glo
Assay type: cell-based, human coronavirus (HCov) OC43
condition-description: read-out: OC43 IC50 (uM) MEDIAN; median; listed as 374 Isomer 1
recorded-metric: IC50

Form field IC50, entry CC(C)(C)c1ccc(N(C(=O)[C@H]2Cc3ccccc3CN2C#N)C(C(=O)NC2CCCCC2)c2cccnc2)cc1 (single isomer, unassigned) [Compound 374 Isomer 1] : > 30 µM

---

Here the recorded pEC50 is given for each entry.
system: 229E Mpro (Human coronavirus 229E, UniProt P0C6X1)
Sequence (P0C6X1 2966-3267): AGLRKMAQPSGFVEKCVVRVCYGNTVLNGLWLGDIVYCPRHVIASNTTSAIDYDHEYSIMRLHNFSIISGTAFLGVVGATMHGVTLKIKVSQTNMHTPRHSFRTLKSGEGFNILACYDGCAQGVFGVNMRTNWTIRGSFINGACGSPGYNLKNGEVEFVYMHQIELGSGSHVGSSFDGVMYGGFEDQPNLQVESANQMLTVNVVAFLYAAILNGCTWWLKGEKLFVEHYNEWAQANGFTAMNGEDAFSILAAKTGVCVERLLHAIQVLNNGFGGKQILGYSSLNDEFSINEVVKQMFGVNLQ
measurement-notes: 229E Mpro enzymatic assay (standard methods, SARS-CoV2 Mpro assay given as exemplary)
Type: biochemical, human coronavirus (HCov) 229E
condition-description: read-out: 229E Mpro EC50
pEC50: −log10 of the molar value.

Example cases with answers are listed next.
INSERT INTO measurements (compound, recorded_metric, result) VALUES
  ('C[C@@]1(O)C[C@H](C(=O)N(c2ccc(S(F)(F)(F)(F)F)cc2)C(C(=O)NC2CCC(F)(F)CC2)c2ccc(F)nc2)N(C#N)C1 (single isomer, unassigned) [1157 Isomer 2]', 'pEC50', '> 5.70'),
  ('CC(C)(C)c1ccc(N(C(=O)[C@@H]2CCN2)[C@H](C(=O)NC2CCCCC2)c2cccnc2)cc1', 'pEC50', '> 5.70');

Form field pEC50, entry N#CN1C[C@H](O)C[C@@H]1C(=O)N(c1ccc(C2(C(F)(F)F)CC2)cc1)C(C(=O)NC1CCCCC1)c1cccnc1 (single isomer, unassigned) [735 Isomer 2] : > 5.70

---

system: COVID-19 (nCoV-2019, SARS-CoV2) Mpro (Severe acute respiratory syndrome coronavirus 2)
measurement-notes: COVID-19 (nCoV-2019, SARS-CoV2) Mpro enzymatic assay
Assay type: biochemical
condition-description: 25 nM Mpro, 25 μM substrate; read-out: COVID-19 Mpro IC50
pIC50: −log10 of the molar value.
Here the recorded pIC50 is given for each entry.

Example cases with answers are listed next.
INSERT INTO assay_data (compound, result) VALUES
  ('Cn1cnnc1C(C(=O)NC1CCCCC1)N(C(=O)[C@H]1C[C@@H](O)CN1C#N)c1ccc(C(C)(C)C)cc1 (single isomer, unassigned) [659 Isomer 2]', '5.00 to 5.70'),
  ('CC1(O)CN(C(=O)C(c2cccnc2)N(C(=O)[C@H]2CCCN2C#N)c2ccc(C(C)(C)C)cc2)C1 (single isomer, unassigned) [955 Isomer 2]', '4.52 to 5.00');

Form field pIC50, entry N#CN1C[C@H](O)C[C@@H]1C(=O)N(c1ccc(C2CC2)cc1F)C(C(=O)NC1CCCCC1)c1cccnc1 (single isomer, unassigned) [Compound 763 Isomer 1] : > 5.70

Form field pIC50, entry COC(C)(C)CNC(=O)C(c1cccnc1)N(C(=O)[C@H]1CCCN1C#N)c1ccc(C(C)(C)C)cc1 (single isomer, unassigned) [Compound 427 Isomer 2] : > 5.70

Form field pIC50, entry CC(C)(C)c1ccc(N(C(=O)[C@H]2COCCN2C#N)C(C(=O)NC2CCCCC2)c2cccnc2)cc1 (single isomer, unassigned) [Compound 202 Isomer 2] : > 5.70

Form field pIC50, entry CC(C)(O)CNC(=O)C(c1cccnc1)N(C(=O)[C@H]1CCCN1C#N)c1ccc(C(C)(C)C)cc1 (some centres unmarked) : 5.00 to 5.70

Form field pIC50, entry CC(C)(C)c1ccc(N(C(=O)[C@H]2C[C@H](Oc3ccccc3)CN2C#N)C(C(=O)NC2CCCCC2)c2cccnc2)cc1 (single isomer, unassigned) [Compound 308 Isomer 1] : < 4.52

Form field pIC50, entry CO[C@@H]1C[C@H](C(=O)N(c2ccc(S(F)(F)(F)(F)F)cc2)C(C(=O)NC(C)C2CCCCN2C(=O)OC(C)(C)C)c2cccnc2)N(C#N)C1 (single isomer, unassigned) [1303 Isomer 2.2] : > 5.70
